Test: chemical genetic growth profiling, strain panel (AID 1159580);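 also: tested at 20 µM; growth read once vehicle control cultures reached saturation at 30 °C; 1 = growth at the plate median or of vehicle wells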
Settings: S. cerevisiae deletion strains, growth OD, locus YCL069W, strain vba3, stronger effect = lower value
About 2,000 (36%) of roughly 5,500 compounds were called active. About 18% were inconclusive and are not listed. The list shows a part of the results.

Molecule	normalized growth
CC(C)c1c(O)ccc2c1CCC1C(C)(C)CCC[C@]21C (stereo partly drawn)	0.932
N#Cc1nn(-c2c(Cl)cc(C(F)(F)F)cc2Cl)c(N)c1S(=O)C(F)(F)F (stereo not drawn)	0.998
C[N+](C)(C)CC(O)CC(=O)O (stereo not drawn)	0.981
O=c1cc(-c2ccc(O)cc2)oc2cc(O[C@@H]3O[C@H](CO)[C@@H](O)[C@H](O)[C@H]3O)cc(O)c12	1
O=c1c(O)c(-c2ccc(O)c(O)c2)oc2cc(O)cc(O)c12	0.92
CC1O[C@@H](Oc2c(-c3ccc(O)c(O)c3)oc3cc(O)cc(O)c3c2=O)[C@H](O)[C@H](O)[C@H]1O (stereo partly drawn)	0.991
CC(C)c1c(O)c(-c2cc3c(c(C(C)C)c2O)CCC2C(C)(C)CCC[C@]32C)cc2c1CCC1C(C)(C)CCC[C@]21C (stereo partly drawn)	0.998
O=c1c(O)c(-c2ccc(O)cc2O)oc2cc(O)cc(O)c12	0.997
CN(C)c1ccc2nc3ccc(=[N+](C)C)cc-3sc2c1	1.08
COC1=CC(=O)C(C(=O)c2ccccc2)=CC1=O	0.996
C[C@H]1O[C@H](OC2[C@@H](O)[C@@H](O)C(O)[C@H](O)[C@H]2O)[C@@H](N)C[C@@H]1N=C(N)C(=O)O (stereo partly drawn)	1
C=CC1C2=CCOC(=O)C2=COC1OC1OC(CO)C(O)C(O)C1O (stereo not drawn)	1.02
CCCCCC(=O)Cc1cc(O)cc(O)c1C(=O)Oc1cc(CC(=O)CCCCC)c(C(=O)O)c(OC)c1	0.929
C[C@@H]1O[C@@H](OC[C@H]2OC(Oc3c(-c4ccc(O)c(O)c4)oc4cc(O)cc(O)c4c3=O)[C@H](O)[C@@H](O)[C@@H]2O)[C@H](O)[C@H](O)[C@H]1O (stereo partly drawn)	1.01
COc1ccc(Cl)cc1C(=O)NCCc1ccc(S(=O)(=O)NC(=O)NC2CCCCC2)cc1	1
O=c1c(O)c(-c2ccc(O)c(O)c2)oc2c(O[C@@H]3O[C@H](CO)[C@H](O)[C@@H](O)[C@H]3O)c(O)cc(O)c12	1.03
CO[C@@]1(NC(=O)C(C(=O)O)c2ccc(O)cc2)C(=O)N2C(C(=O)O)=C(CSc3nnnn3C)CO[C@@H]21 (stereo partly drawn)	0.991
COC1=CC(=O)C(O)=C/C1=C\C=C\c1ccccc1	0.064

###

Test: chemical genetic growth profiling, strain panel (AID 1159580)
Conditions: S. cerevisiae deletion strains, growth OD, locus YKR001C, strain vps1, stronger effect = lower value
Among all 5,500 compounds or so, about 2,000 (36%) were called active. About 18% were inconclusive and are not listed. The list shows a part of the results.
# strict inequality: normalized growth < 1 yields 1, everything else yields -1

Compound	Group
COc1cc(OC)c2c(=O)c(O)c(-c3ccc(OC)c(OC)c3)oc2c1	1
COc1cccc2c(C)cc(=O)[nH]c12	1
CCCCCCCCCCCC1=C(O)C(=O)C=C(O)C1=O	1
CC(CC(O)C1OC1(C)C)[C@@H]1CCC2(C)C3=CCC4C(C)(C)C(=O)CCC4(C)C3CC[C@@]12C (stereo partly specified)	-1
CCCC(C)(COC(N)=O)COC(=O)NC(C)C (stereo unspecified)	1
CC1(C)C(=O)C=C[C@@]2(C)C1CC(=O)[C@]1(C)C2CC[C@@]2(C)[C@H](c3ccoc3)OC(=O)[C@H]3O[C@]321 (stereo partly specified)	-1

###

Test: chemical genetic growth profiling, strain panel (AID 1159580);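 also: tested at 20 µM; growth read once vehicle control cultures reached saturation at 30 °C; 1 = growth at the plate median or of vehicle wells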
Conditions: S. cerevisiae deletion strains, growth OD, locus YNL020C, strain ARK1, stronger effect = lower value
The campaign covered roughly 5,500 compounds. About 2,000 (36%) were called active. Roughly 18% stayed inconclusive and do not appear here. Some of the results follow.
Entries and their normalized growth
Quantity kind: normalized growth

Compound	Quantity kind	Numeric result
FC(F)(F)c1ccc(N2CCc3ccccc3C2)c(NC(=S)Nc2cc(Cl)cc(Cl)c2)c1	normalized growth	0.934
O=C1Nc2ccccc2/C1=C/c1ccc(Oc2ccccc2)nc1	normalized growth	0.869
Cc1c(C)c(C)c(C(O)c2ccccc2)c(C)c1C (stereo unspecified)	normalized growth	0.852
Oc1c(Br)cc(Br)cc1C=Nc1ccc(Sc2ccccc2)nc1Sc1ccccc1	normalized growth	0.174
Cc1ccc(C)n1-c1ccc(/C=C2/C(=O)Nc3ccccc32)cc1	normalized growth	0.936
COc1ccc(/C=C2/C(=O)Nc3ccccc32)cc1	normalized growth	0.841
O/N=C(/c1ccc(Cl)cc1)c1cc2ccccc2o1	normalized growth	0.82
CN(C)C=Nc1nnc(Sc2nc3c(Cl)cc(Cl)cc3s2)s1	normalized growth	0.966
OC(COc1ccc(F)cc1)(c1ccccc1)c1ccccc1	normalized growth	0.959
Oc1c(Cl)cc(Cl)cc1C=Nc1ccc(Sc2ccccc2)nc1Sc1ccccc1	normalized growth	0.566
Oc1c(Br)cc(Br)cc1/C=N\n1cnnc1	normalized growth	0.259

###

Test: chemical genetic growth profiling, strain panel (AID 1159580);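 also: tested at 20 µM; growth read once vehicle control cultures reached saturation at 30 °C; 1 = growth at the plate median or of vehicle wells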
Details: S. cerevisiae deletion strains, growth OD, locus YBR009C, strain hhf1
About 2,000 (36%) of roughly 5,500 compounds were called active. Not shown: some 18% with an inconclusive outcome. No stated cut-off is given here; in the data, active means normalized growth mostly below about 0.91 (no sharp cut-off); inconclusive means no clear call, values can overlap the other calls; inactive means mostly above about 0.92. The list shows a part of the results.
Classes used: Y = active, N = inactive

Compound	Group
CC1CCC2(OC1)OC1CC3C4CC[C@H]5C[C@@H](O)CC[C@]5(C)C4CC(=O)[C@]3(C)C1C2C (stereo partly specified)	N
C=C1CCC2(OC1)OC1CC3C4CC=C5CC(O)CC(O)C5(C)C4CCC3(C)C1C2C (stereo unspecified)	Y
C[C@@H]1CC[C@@]2(OC1)OC1CC3C4CC=C5C[C@@H](O)CC[C@]5(C)C4CC[C@]3(C)C1[C@@H]2C (stereo partly specified)	N
O=C(O[C@@H]1Cc2c(O)cc(O)cc2O[C@@H]1c1cc(O)c(=O)c2c(O)c(O)cc([C@H]3Oc4cc(O)cc(O)c4C[C@H]3O)c2c1)c1cc(O)c(O)c(O)c1	Y
COC(=O)c1c(C)cc(O)cc1O	N
C[C@H]1O[C@H](OC2[C@@H](O)[C@@H](O)C(O)[C@H](O)[C@H]2O)[C@@H](N)C[C@@H]1N=C(N)C(=O)O (stereo partly specified)	N
CCN[C@@H]1C[C@H](N)[C@@H](O[C@H]2OC(CN)=CC[C@H]2N)[C@H](O)[C@H]1OC1OC[C@](C)(O)[C@H](NC)[C@H]1O (stereo partly specified)	N
CN[C@@H]1[C@@H](O)C(OC2[C@@H](N)C[C@@H](N)[C@H](O[C@H]3O[C@H](C(C)O)[C@@H](O)[C@H](O)[C@H]3N)[C@H]2O)OC[C@]1(C)O (stereo partly specified)	N
CN[C@@H]1C(O)[C@@H](O[C@@H]2[C@@H](O)[C@H](O[C@H]3OC(CN)=CC[C@H]3N)[C@@H](N)C[C@H]2N)OC[C@]1(C)O (stereo partly specified)	N
CC(=O)OC(C)C[N+](C)(C)C (stereo unspecified)	N
CC(C)c1c(O)c(-c2cc3c(c(C(C)C)c2O)CCC2C(C)(C)CCC[C@]32C)cc2c1CCC1C(C)(C)CCC[C@]21C (stereo partly specified)	N
O=C(O[C@@H]1Cc2c(O)cc(O)cc2O[C@@H]1c1cc(O)c(=O)c2c(O)c(O)cc([C@H]3Oc4cc(O)cc(O)c4C[C@H]3OC(=O)c3cc(O)c(O)c(O)c3)c2c1)c1cc(O)c(O)c(O)c1	Y
CC(C)c1c(O)ccc2c1CCC1C(C)(C)CCC[C@]21C (stereo partly specified)	Y
CC(C)c1c(O)ccc2c1CCC1[C@@](C)(C=O)CCC[C@]21C (stereo partly specified)	Y
C[C@@H]1CC[C@@]2(NC1)O[C@H]1C[C@H]3C4CC=C5C[C@@H](O)CC[C@]5(C)C4CC[C@]3(C)C1[C@@H]2C (stereo partly specified)	Y
C[N+](C)(C)CC(O)CC(=O)O (stereo unspecified)	N

###

Entries and their normalized growth
Assay: chemical genetic growth profiling, strain panel (AID 1159580);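 also: tested at 20 µM; growth read once vehicle control cultures reached saturation at 30 °C; 1 = growth at the plate median or of vehicle wells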
Details: S. cerevisiae deletion strains, growth OD, locus YBR171W, strain sec66, stronger effect = lower value
The whole screen tested about 5,500 compounds, of which about 2,000 (36%) were called active. Inconclusive results (about 18%) are left out. Some of the results follow.
Quantity kind: normalized growth

Molecule	Numeric result
CC1(C)C2CC(=O)[C@]3(C)C(CC[C@@]4(C)[C@H](c5ccoc5)OC(=O)[C@H]5O[C@]543)[C@@]2(C)C(=O)C[C@H]1O (some centres undefined)	1.01
CCCCCCCCCCCC1=C(O)C(=O)C=C(O)C1=O	0.853
CC/C(=C(/CC)c1ccc(O)cc1)c1ccc(O)cc1	0.987
CC(=O)O[C@@H]1CC2C(C)(C)C(=O)C=C[C@]2(C)C2CC[C@@]3(C)[C@H](c4ccoc4)OC(=O)[C@H]4O[C@]43[C@@]21C (some centres undefined)	0.982
CC(C)[N+](C)(CCC(C(N)=O)(c1ccccc1)c1ccccc1)C(C)C	0.987
NC(=O)CN1CCCC1=O	0.982
NC(=O)NCCCC(N)C(=O)O (centres undefined)	0.99
CC(=O)Oc1ccc2c(c1OC(C)=O)OCC1(O)Cc3c(cc(OC(C)=O)c(OC(C)=O)c3OC(C)=O)C21 (centres undefined)	1.02
CC1(C)C2CC(=O)[C@]3(C)C(CC[C@@]4(C)[C@H](c5ccoc5)OC(=O)C5OC543)[C@@]2(C)[C@@H](O)C[C@H]1O (some centres undefined)	1.03
CC(=O)O[C@]1(C(C)=O)CCC2C3C=C(Cl)C4=CC(=O)[C@@H]5C[C@@H]5[C@]4(C)C3CC[C@@]21C (some centres undefined)	1.02
C[C@]12CCC3c4ccc(O)cc4CCC3C1CC[C@@H]2O (some centres undefined)	1.01
COc1ccc(Cl)cc1C(=O)NCCc1ccc(S(=O)(=O)NC(=O)NC2CCCCC2)cc1	1.01
CC1(C)C(=O)C=C[C@@]2(C)C1CC(=O)[C@]1(C)C2CC[C@@]2(C)[C@H](c3ccoc3)OC(=O)[C@H]3O[C@]321 (some centres undefined)	0.98
C=C[C@H]1CN2CC[C@H]1C[C@@H]2[C@@H](OC(=O)OCC)c1ccnc2ccc(OC)cc12	0.995
Oc1ccc2c(c1)OCC1(O)Cc3cc(O)c(O)cc3C21 (centres undefined)	1.04
CC1(C)C=CC(=O)[C@@]2(C)C1CC(=O)[C@]1(C)C2CC[C@@]2(C)[C@H](c3ccoc3)OC(=O)C3OC321 (some centres undefined)	1.01
CCC(c1ccc(O)cc1)C(CC)c1ccc(O)cc1 (centres undefined)	0.993
CC(C)(C)NCC(O)c1cc(O)cc(O)c1 (centres undefined)	0.986
CC(C)N(CCC(C(N)=O)(c1ccccc1)c1ccccn1)C(C)C (centres undefined)	0.0831

Numbers sourced from PubChem BioAssay AID1159580.
